This collection of values is drawn from patent US20230000869A1.

# system_under_test: ALK1 (Homo sapiens, UniProt P37023)
# Construct: purchased Life technology (Fredrick, Md.) and/or CARNA BIOSCIENCES Inc. (Kobe, Japan)
# Sequence (P37023 22-503): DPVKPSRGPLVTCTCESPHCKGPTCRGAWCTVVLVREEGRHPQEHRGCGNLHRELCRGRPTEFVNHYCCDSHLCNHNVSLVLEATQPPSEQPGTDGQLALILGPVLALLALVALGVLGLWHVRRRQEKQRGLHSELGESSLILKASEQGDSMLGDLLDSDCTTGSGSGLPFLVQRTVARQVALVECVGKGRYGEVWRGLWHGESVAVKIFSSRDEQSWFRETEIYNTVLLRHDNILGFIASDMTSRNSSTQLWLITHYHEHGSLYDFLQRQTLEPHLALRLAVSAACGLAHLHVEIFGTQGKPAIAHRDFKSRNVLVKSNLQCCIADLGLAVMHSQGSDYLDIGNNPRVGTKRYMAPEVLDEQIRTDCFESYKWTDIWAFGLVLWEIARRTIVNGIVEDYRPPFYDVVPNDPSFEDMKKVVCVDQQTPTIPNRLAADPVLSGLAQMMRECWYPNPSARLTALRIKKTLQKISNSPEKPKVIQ
# experiment_notes: TR-FRET enzymatic assay, ALK1 kinase, 1536-well
# Format: biochemical
# test_conditions: span of the concentration-response curve, TR-FRET
# Procedure: We have developed six ALK kinase enzyme assays for determination of compound activities on ALK1, ALK2, ALK3, ALK4, ALK5 and ALK6. […] The binding of Eu-anti-phospho-peptide antibody to the phosphorylated Ulight peptide substrate bring both Eu donor and Ulight acceptor dye into close proximity. […] The assay plate was measured in an EnVision plate reader (Perkin Elmer) in the TR-FRET detection mode (excitation at 340 nm and emission at 665 nm).
endpoint: ALK1 Span
Give your answer as a number; write no unit.

compound	recorded_result
Cc1cc(-c2cnn3cc(N4CCC(N5CCNCC5)CC4)cnc23)c2ccccc2n1 [Compound 34]	93.42

(Q) Quick one: ALK1 Span for Cc1cc(-c2cnn3cc(N4CCC(N5CCN(C)CC5)CC4)cnc23)c2ccccc2n1 [Compound 8] ?
(A) 89.1

(Q) Please answer likewise for Cc1cc(-c2cnn3cc(N4CCC(N5CCOCC5)CC4)cnc23)c2ccccc2n1 [Compound 11]
(A) 91.4

(Q) Also need COc1cc2c(-c3cnn4cc(N5CCC(N6CCN(C)CC6)CC5)cnc34)ccnc2cc1F [Compound 15] , thanks.
(A) 92.3

---

# system_under_test: ALK2 (Mus musculus, UniProt P37172)
# Construct: endogenous in cells
# Sequence (P37172 21-509): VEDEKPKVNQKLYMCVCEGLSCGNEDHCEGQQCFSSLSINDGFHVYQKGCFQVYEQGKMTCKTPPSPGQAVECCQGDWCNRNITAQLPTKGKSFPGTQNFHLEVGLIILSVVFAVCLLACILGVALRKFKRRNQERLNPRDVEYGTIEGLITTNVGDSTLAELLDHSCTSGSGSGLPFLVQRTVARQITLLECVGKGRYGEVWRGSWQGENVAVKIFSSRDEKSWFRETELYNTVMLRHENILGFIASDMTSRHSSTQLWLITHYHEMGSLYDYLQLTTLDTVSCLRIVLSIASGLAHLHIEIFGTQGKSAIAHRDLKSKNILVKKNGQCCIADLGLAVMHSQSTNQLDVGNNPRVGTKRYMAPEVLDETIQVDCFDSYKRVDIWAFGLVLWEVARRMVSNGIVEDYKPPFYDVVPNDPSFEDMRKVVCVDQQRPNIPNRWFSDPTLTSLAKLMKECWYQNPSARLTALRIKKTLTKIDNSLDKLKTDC
# experiment_notes: Luciferase reporter gene assay for ALK2 activity (C2C12 BRE-Luc SMAD1/5/8 reporter, BMP6 agonist)
# test_conditions: BMP6 50 ng/mL
endpoint: pIC50
Note on units: pIC50 is unitless, being -log10 of a concentration expressed in mol/L.

CN1CCN(C2CCN(c3cnc4c(-c5ccnc6c5ccn6C)cnn4c3)CC2)CC1 6.71
CN1CCN(C2CCN(c3cnc4c(-c5ccnc6ccsc56)cnn4c3)CC2)CC1 7.24
Cc1cc(-c2cnn3cc(N4CC5(CN(C)C5)C4)cnc23)c2ccccc2n1 8.52

(Q) Checklist item: pIC50 tested on ALK2 (Mus musculus, UniProt P37172), entry `COc1cc2c(-c3cnn4cc(N5CC(N6CCOCC6)C5)cnc34)ccnc2cc1F` , value?
(A) 6.93

---

Consider the following compounds and their measured ALK2 Span readings.
# system_under_test: ALK2 (Homo sapiens, UniProt Q04771)
# Construct: purchased Life technology (Fredrick, Md.) and/or CARNA BIOSCIENCES Inc. (Kobe, Japan)
# Sequence (Q04771 21-509): as the sequence (P37172 21-509) above, with V1M, Q10P, I121L, E162D, S310P counted along it
# experiment_notes: TR-FRET enzymatic assay, ALK2 kinase, 1536-well
# Assay type: biochemical
# test_conditions: span of the concentration-response curve, TR-FRET

(Q) ALK2 Span lookup needed for `Cc1cc(-c2cnn3cc(N4CCC(N5CCOCC5)CC4)cnc23)c2ccccc2n1` , thanks.
(A) ~117.5

(Q) Entry `COc1cc2c(-c3cnn4cc(N5CCC(N6CCN(C)CC6)CC5)cnc34)ccnc2cc1F` please
(A) ~117.8

(Q) Also check `Cc1cc(-c2cnn3cc(N4CCC(N5CCNCC5)CC4)cnc23)c2ccccc2n1`
(A) ~117.8

(Q) Same thing, different compound: `Cc1cc(-c2cnn3cc(N4CCC(N5CCN(C)CC5)CC4)cnc23)c2ccccc2n1`
(A) 109.4
